# protocol_description: in vivo
# measurement_conditions: female, New Zealand white (INRA 1777 line), rabbit, in vivo, iv
quantity: MRT
Don't forget the unit after the value.

Some compounds with known MRT results, for comparison:
- smiles_structure: "Clc1c(Cl)c(Cl)c(Cl)c(Cl)c1Cl"
  MRT: "551 h"
- smiles_structure: "O=C(O)C(F)(F)C(F)(F)C(F)(F)C(F)(F)C(F)(F)C(F)(F)C(F)(F)F"
  MRT: "18.7 h"
- smiles_structure: "Cl[C@H]1[C@H](Cl)[C@@H](Cl)[C@H](Cl)[C@@H](Cl)[C@@H]1Cl"
  MRT: "543 h"
- smiles_structure: "Brc1ccc(Oc2ccc(Br)cc2Br)c(Br)c1"
  MRT: "86.9 h"

Incoming: Need MRT, item ClC(Cl)=C(c1ccc(Cl)cc1)c1ccc(Cl)cc1
Outgoing: 203 h

====

# protocol_description: Estimation of loading and daily maintenance doses and NLME model simulations
# Design: species or system female rabbits
# measurement_conditions: oral, scaled to the targeted CSS of Table 6
This listing pairs compounds with measured Computed loading dose.

Incoming: Need Computed loading dose, item O=S(=O)(c1ccc(O)cc1)c1ccc(O)cc1 [BPS, bisphenol S]
Outgoing: 32 µg/kg

Incoming: Need Computed loading dose, item Cl[C@H]1[C@H](Cl)[C@@H](Cl)[C@H](Cl)[C@@H](Cl)[C@@H]1Cl [β-HCH, β-hexachlorocyclohexane]
Outgoing: 163 µg/kg

Incoming: Need Computed loading dose, item ClC(Cl)=C(c1ccc(Cl)cc1)c1ccc(Cl)cc1 [pp′DDE]
Outgoing: 1,039 μg/kg

Incoming: Need Computed loading dose, item O=C(O)C(F)(F)C(F)(F)C(F)(F)C(F)(F)C(F)(F)C(F)(F)C(F)(F)F [PFOA, perfluorooctanoic acid]
Outgoing: 10 µg/kg

Incoming: Need Computed loading dose, item O=S(=O)(O)C(F)(F)C(F)(F)C(F)(F)C(F)(F)C(F)(F)C(F)(F)C(F)(F)C(F)(F)F [PFOS, perfluorooctane sulfonate]
Outgoing: 60 µg/kg

Incoming: Need Computed loading dose, item Brc1ccc(Oc2ccc(Br)cc2Br)c(Br)c1 [BDE-47, 2,2′,4,4′-tetrabromodiphenyl ether]
Outgoing: 7.5 µg/kg

Incoming: Need Computed loading dose, item CCCCC(CC)COC(=O)c1ccccc1C(=O)OCC(CC)CCCC (stereo not shown) [DEHP, di(2-ethylhexyl)phthalate]
Outgoing: 264 µg/kg

====

# protocol_description: TK assay, oral mixture dosing: serum concentrations and noncompartmental analysis (sparse data)
# measurement_conditions: female, New Zealand white (INRA 1777 line), rabbit, in vivo, po, Serum concentration, oral, rabbit 14, […]; MEHP after oral DEHP
quantity: concentration at 24 h
Don't forget the unit after the value.

Some compounds with known concentration at 24 h results, for comparison:
- smiles_structure: "Brc1ccc(Oc2ccc(Br)cc2Br)c(Br)c1"
  obs_value: "510 nM"
- smiles_structure: "O=C(O)C(F)(F)C(F)(F)C(F)(F)C(F)(F)C(F)(F)C(F)(F)C(F)(F)F"
  obs_value: "1530 nM"

Attention now shifts to the item below.
Incoming: Need concentration at 24 h, item Cl[C@H]1[C@H](Cl)[C@@H](Cl)[C@H](Cl)[C@@H](Cl)[C@@H]1Cl
Outgoing: 200 nM

====

This listing pairs compounds with measured tvVc (volume of the central compartment).
# protocol_description: Nonlinear mixed effect (NLME) compartmental modeling of merged IV and oral serum concentrations
# measurement_conditions: population primary parameter, typical value, mean
Entry rule: numbers only, all in L/kg.

- compound: "Cl[C@H]1[C@H](Cl)[C@@H](Cl)[C@H](Cl)[C@@H](Cl)[C@@H]1Cl [β-HCH, β-hexachlorocyclohexane]"
  tvVc (volume of the central compartment) / L/kg: 5.1310
- compound: "ClC(Cl)=C(c1ccc(Cl)cc1)c1ccc(Cl)cc1 [pp′DDE]"
  tvVc (volume of the central compartment) / L/kg: 2.821
- compound: "Clc1c(Cl)c(Cl)c(Cl)c(Cl)c1Cl [HCB, hexachlorobenzene]"
  tvVc (volume of the central compartment) / L/kg: 14.63
- compound: "O=S(=O)(c1ccc(O)cc1)c1ccc(O)cc1 [BPS, bisphenol S]"
  tvVc (volume of the central compartment) / L/kg: 1.681
- compound: "CCCCC(CC)COC(=O)c1ccccc1C(=O)O (centres unmarked) [MEHP, mono(2-ethylhexyl)phthalate]"
  tvVc (volume of the central compartment) / L/kg: 0.329
- compound: "O=C(O)C(F)(F)C(F)(F)C(F)(F)C(F)(F)C(F)(F)C(F)(F)C(F)(F)F [PFOA, perfluorooctanoic acid]"
  tvVc (volume of the central compartment) / L/kg: 0.101
- compound: "O=S(=O)(O)C(F)(F)C(F)(F)C(F)(F)C(F)(F)C(F)(F)C(F)(F)C(F)(F)C(F)(F)F [nPFOS]"
  tvVc (volume of the central compartment) / L/kg: 0.290

Attention now shifts to the item below.
Incoming: Need tvVc (volume of the central compartment), item Brc1ccc(Oc2ccc(Br)cc2Br)c(Br)c1 [BDE-47, 2,2′,4,4′-tetrabromodiphenyl ether]
Outgoing: 5.188
